target: GORASP2, Q9H8Y8; test: holdup assay; parameters: key: below the threshold = too weak to quantify, mostly under pKd 3.1 to 4; details: plain residues with an end cap or a label only (N-terminal biotin on a linker: ahx)
recordedEndpoint: pKd

>  <binder>
NRKREIFSNF [NHERF2, Q15599]

>  <endpointResult>
below the threshold

$$$$
>  <binder>
LSDPSVSTVV [GRIN1, Q05586;Q05586-2]

>  <endpointResult>
below the threshold

$$$$
>  <binder>
PSASCAVTAA [PDLIM4, P50479;P50479-2]

>  <endpointResult>
below the threshold

$$$$
